Origin of measurements: ChEMBL document CHEMBL1777803

assay: Inhibition of gamma secretase-mediated Abeta40 production
value type: IC50 (nM)

O=C1CC[C@@]2(S(=O)(=O)c3ccc(C(F)(F)F)cc3)c3c(F)ccc(F)c3OC[C@@]2(O)C1
53
CCS(=O)(=O)CCO[C@]12CCCC[C@@]1(S(=O)(=O)c1ccc(Cl)cc1)c1c(F)ccc(F)c1OC2
15

I = O=C1CC[C@@]2(S(=O)(=O)c3ccc(Cl)cc3)c3c(F)ccc(F)c3OC[C@]2(O)C1
II = O=S(=O)(c1ccc(Cl)cc1)[C@@]12CCCC[C@@H]1COc1c(F)ccc(F)c12
Q: Hi, I'm comparing I with II and wondering which one has the bigger number for IC50. Any idea? Kindly give the label for the entry you pick.
Result: I

I = O=S(=O)(NCCO[C@@]12COc3c(F)ccc(F)c3[C@]1(S(=O)(=O)c1ccc(Cl)cc1)CC[C@@H](O)C2)C(F)(F)F
II = O=S(=O)(c1ccc(Cl)cc1)[C@@]12CC[C@H](O)C[C@]1(O)COc1c(F)ccc(F)c12
III = CCS(=O)(=O)CCO[C@@]12COc3c(F)ccc(F)c3[C@]1(S(=O)(=O)c1ccc(Cl)cc1)CC[C@@H](O)C2
IV = CC(C)SCCO[C@]12CCCC[C@@]1(S(=O)(=O)c1ccc(Cl)cc1)c1c(F)ccc(F)c1OC2
Q: Please list the entries, largest IC50 first. # answer = labels listed in requested order
Result: I, II, IV, III
(I: 4100 nM, II: 363 nM, IV: 180 nM, III: 87 nM)

* * *

assay: Dissociation constant, pKa of the compound in DMSO; assay type: physicochemical; settings: DMSO; read-out: pKa
value type: pKa
Provide a numeric answer; units are not to be included.

Reported pKa of NS(=O)(=O)C(F)(F)F [TRIFLUOROMETHANESULFONAMIDE] : 9.7

* * *

experiment: Inhibition of gamma secretase-mediated Abeta40 production
pIC50: −log10 of the molar value.
value type: pIC50

O=S(=O)(c1ccc(Cl)cc1)[C@@]12CCC3(C[C@]1(O)COc1c(F)ccc(F)c12)OCCO3
5.54

I = O=S(=O)(N[C@@H]1CC[C@@]2(S(=O)(=O)c3ccc(Cl)cc3)c3c(F)ccc(F)c3OC[C@@]2(O)C1)C(F)F
II = O=S(=O)(N[C@@H]1CC[C@@]2(S(=O)(=O)c3ccc(Cl)cc3)c3c(F)ccc(F)c3OC[C@@]2(O)C1)C1CCC1
Q: Higher pIC50 between I and II ? // respond with label for picked entry
Result: I
(I: 7.17, II: 6.67)

* * *

test: Inhibition of gamma secretase-mediated Abeta40 production
pIC50: −log10 of the molar value.
value type: pIC50

CCSCCO[C@]12CCCC[C@@]1(S(=O)(=O)c1ccc(Cl)cc1)c1c(F)ccc(F)c1OC2
6.77
O=S(=O)(N[C@@H]1CC[C@@]2(S(=O)(=O)c3ccc(Cl)cc3)c3c(F)ccc(F)c3OC[C@H]2C1)C(F)(F)F
7.57
CN(C)CCO[C@]12CCCC[C@@]1(S(=O)(=O)c1ccc(Cl)cc1)c1c(F)ccc(F)c1OC2
7.51

P = O=S(=O)(N[C@@H]1CC[C@@]2(S(=O)(=O)c3ccc(C(F)(F)F)cc3)c3c(F)ccc(F)c3OC[C@@]2(O)C1)C(F)(F)F
Q = CCS(=O)(=O)CCO[C@@]12COc3c(F)ccc(F)c3[C@]1(S(=O)(=O)c1ccc(Cl)cc1)CCC1(C2)OCCO1
R = O=S(=O)(NCCO[C@]12CCCC[C@@]1(S(=O)(=O)c1ccc(Cl)cc1)c1c(F)ccc(F)c1OC2)C(F)(F)F
S = O=S(=O)(c1ccc(C(F)(F)F)cc1)[C@@]12CC[C@@H](O)C[C@]1(O)COc1c(F)ccc(F)c12
T = CNCCO[C@]12CCCC[C@@]1(S(=O)(=O)c1ccc(Cl)cc1)c1c(F)ccc(F)c1OC2
Q: Put the items in sequence by pIC50, from largest down. Form entry: ranked labels (order as requested).
Result: P, T, S, R, Q
(P: 7.64, T: 7.40, S: 6.87, R: 6.53, Q: 5.89)
